Cited source for all entries: ChEMBL document CHEMBL4417631

- Assay target: Interleukin-23 receptor (Homo sapiens)
- Sequence (Q5VWK5 whole entry): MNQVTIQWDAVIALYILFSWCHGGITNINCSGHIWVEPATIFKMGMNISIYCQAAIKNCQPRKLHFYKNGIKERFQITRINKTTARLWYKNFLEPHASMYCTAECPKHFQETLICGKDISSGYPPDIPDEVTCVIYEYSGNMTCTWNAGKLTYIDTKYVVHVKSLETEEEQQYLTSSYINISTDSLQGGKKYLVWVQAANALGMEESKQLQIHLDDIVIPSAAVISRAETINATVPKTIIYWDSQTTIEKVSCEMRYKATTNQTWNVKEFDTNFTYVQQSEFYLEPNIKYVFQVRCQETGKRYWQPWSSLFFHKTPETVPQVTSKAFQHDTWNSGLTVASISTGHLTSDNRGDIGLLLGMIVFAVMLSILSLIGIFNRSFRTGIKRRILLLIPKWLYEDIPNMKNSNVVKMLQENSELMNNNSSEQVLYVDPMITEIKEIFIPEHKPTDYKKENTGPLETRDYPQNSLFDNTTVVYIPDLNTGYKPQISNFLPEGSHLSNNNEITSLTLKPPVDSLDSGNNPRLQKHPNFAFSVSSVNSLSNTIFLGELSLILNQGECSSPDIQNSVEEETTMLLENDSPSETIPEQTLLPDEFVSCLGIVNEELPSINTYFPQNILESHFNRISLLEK
- Measurement description: Inhibition of interleukin-23 binding to human interleukin-23 receptor incubated for 2 hrs by competitive binding ELISA
pIC50: −log10 of the molar value. Where a SMILES comes first, the peptide text is derived from it. [ ]: non-standard residue; d: D form. 2Nal = N[C@@H](Cc1ccc2ccccc2c1)C(=O)O; Pen = CC(C)(S)[C@H](N)C(=O)O; hLeu = CC(C)CC[C@H](N)C(=O)O; αMeK = C[C@](N)(CCCCN)C(=O)O
Measurement name: pIC50

Here are 3 compounds together with their reported answers.
{"Compound": "CC(=O)N[C@@H](CS)C(=O)N[C@@H](C)C(=O)N[C@@H](CC(=O)O)C(=O)N[C@@H](Cc1c[nH]c2ccccc12)C(=O)N[C@H](C(=O)N[C@@H](CS)C(=O)N[C@@H](Cc1ccc(O)cc1)C(=O)N[C@@H](Cc1c[nH]c2ccccc12)C(=O)N[C@@H](Cc1cnc[nH]1)C(=O)N[C@H](C(=O)N[C@@H](Cc1ccccc1)C(=O)NCC(=O)O)[C@@H](C)O)C(C)C", "pIC50": "> 6.30"}
{"Compound": "CC(=O)N[C@@H](CS)C(=O)N[C@@H](CCC(N)=O)C(=O)N[C@H](C(=O)N1CCC[C@H]1C(=O)N[C@@H](CCC(N)=O)C(=O)N[C@@H](CS)C(=O)N[C@@H](Cc1ccc(O)cc1)C(=O)N[C@@H](Cc1c[nH]c2ccccc12)C(=O)N[C@@H](CCC(C)C)C(=O)N[C@@H](CCC(=O)O)C(=O)N[C@@H](CC(N)=O)C(=O)NCC(N)=O)[C@@H](C)O (Ac-CQTPQCYW[hLeu]ENG-NH2)", "pIC50": "< 5.00"}
{"Compound": "CC(=O)N[C@H](C(=O)N[C@@H](CCC(N)=O)C(=O)N[C@H](C(=O)N[C@@H](Cc1c[nH]c2ccccc12)C(=O)N[C@@H](CCC(N)=O)C(=O)N[C@H](C(=O)N[C@@H](Cc1ccc2ccccc2c1)C(=O)N[C@@H](Cc1ccc2ccccc2c1)C(=O)N[C@@](C)(CCCCN)C(=O)N[C@@H](CCC(=O)O)C(=O)N[C@@H](CC(N)=O)C(=O)NCC(N)=O)C(C)(C)S)[C@@H](C)O)C(C)(C)S (Ac-[Pen]QTWQ[Pen][2Nal][2Nal][αMeK]ENG-NH2)", "pIC50": "6.00 to 7.00"}

q: Indicate its recorded pIC50; the compound in question is CC(=O)N[C@H]1CCSC[C@@H](C(=O)N[C@@H](Cc2ccc(OCCN)cc2)C(=O)N[C@@H](Cc2ccc3ccccc3c2)C(=O)N[C@@](C)(CCCCN)C(=O)N[C@@H](CCC(=O)O)C(=O)N[C@@H](CC(N)=O)C(=O)NCC(N)=O)NC(=O)[C@H](CCC(N)=O)NC(=O)[C@@H]2Cc3c([nH]c4ccccc34)CN2C(=O)[C@H]([C@@H](C)O)NC(=O)[C@H](CCC(N)=O)NC1=O
a: 6.00 to 7.00

q: Read off the recorded pIC50 for CC(=O)N[C@@H](CS)C(=O)N[C@@H](C)C(=O)N[C@@H](CC(=O)O)C(=O)N[C@@H](Cc1c[nH]c2ccccc12)C(=O)N[C@H](C(=O)N[C@@H](CS)C(=O)N[C@@H](Cc1ccc(O)cc1)C(=O)N[C@@H](Cc1c[nH]c2ccccc12)C(=O)N[C@@H](Cc1cnc[nH]1)C(=O)N[C@H](C(=O)N[C@@H](Cc1ccc(O)cc1)C(=O)NCC(N)=O)[C@@H](C)O)C(C)C
a: > 6.30

---

- Assay target: Interleukin-23 receptor (Homo sapiens)
- Measurement description: Inhibition of interleukin-23 binding to human interleukin-23 receptor incubated for 2 hrs by competitive binding ELISA
Where a SMILES comes first, the peptide text is derived from it.
Measurement name: IC50

{"Compound": "CC(C)[C@H](NC(=O)[C@H](Cc1c[nH]c2ccccc12)NC(=O)[C@H](CC(=O)O)NC(=O)[C@@H](NC(=O)[C@@H](N)CS)[C@@H](C)O)C(=O)N[C@@H](CS)C(=O)N[C@@H](Cc1ccc(O)cc1)C(=O)N[C@@H](Cc1c[nH]c2ccccc12)C(=O)N[C@@H](Cc1cnc[nH]1)C(=O)N[C@@H](CCC(=O)O)C(=O)N[C@@H](Cc1ccc(O)cc1)C(=O)N[C@@H](CO)C(N)=O (H-CTDWVCYWHEYS-NH2)", "IC50": "> 1 µM"}

Kindly consider the entry below.
q: Provide only the value of recorded IC50 for COc1ccc([C@@H]2NC(=O)[C@H]([C@@H](C)O)NC(=O)[C@H](CCC(N)=O)NC(=O)[C@@H](NC(C)=O)CCSC[C@@H](C(=O)N[C@@H](Cc3ccc(OCCN)cc3)C(=O)N[C@@H](Cc3ccc4ccccc4c3)C(=O)N[C@@](C)(CCCCN)C(=O)N[C@@H](CCC(=O)O)C(=O)N[C@@H](CC(N)=O)C(=O)NCC(N)=O)NC(=O)[C@H](CCC(N)=O)NC2=O)cc1
a: > 3 µM

---

- Assay target: Interleukin-23 receptor (Homo sapiens, UniProt Q5VWK5)
- Measurement description: Inhibition of interleukin-23 binding to human interleukin-23 receptor incubated for 2 hrs by competitive binding ELISA
pIC50: −log10 of the molar value.
The following compounds are listed with their measured pIC50 values.

{"Given smiles": "CC(=O)N[C@@H](CS)C(=O)N[C@@H](C)C(=O)N[C@@H](CC(=O)O)C(=O)N[C@@H](Cc1c[nH]c2ccccc12)C(=O)N[C@H](C(=O)N[C@@H](CS)C(=O)N[C@@H](Cc1ccc(O)cc1)C(=O)N[C@@H](Cc1c[nH]c2ccccc12)C(=O)N[C@@H](Cc1cnc[nH]1)C(=O)N[C@H](C(=O)N[C@@H](Cc1ccccc1)C(=O)NCC(=O)N[C@@H](C)C(=O)N1CCC[C@H]1C(=O)N[C@H](CCCCN)C(=O)O)[C@@H](C)O)C(C)C", "pIC50": "6.00 to 7.00"}
{"Given smiles": "CC(=O)N[C@@H](CS)C(=O)N[C@@H](C)C(=O)N[C@@H](CC(=O)O)C(=O)N[C@@H](Cc1c[nH]c2ccccc12)C(=O)N[C@H](C(=O)N[C@@H](CS)C(=O)N[C@@H](Cc1ccc(O)cc1)C(=O)N[C@@H](Cc1c[nH]c2ccccc12)C(=O)N[C@@H](Cc1cnc[nH]1)C(=O)N[C@H](C(=O)N[C@@H](Cc1ccccc1)C(=O)NCC(=O)N[C@@H](C)C(=O)N1CC[C@H]1C(=O)N[C@H](CCCCN)C(=O)O)[C@@H](C)O)C(C)C", "pIC50": "6.00 to 7.00"}
{"Given smiles": "COc1ccc(C[C@H](NC(=O)[C@@H]2CSCC[C@H](NC(C)=O)C(=O)N[C@@H](CCC(N)=O)C(=O)N[C@@H]([C@@H](C)O)C(=O)N[C@@H](Cc3c[nH]c4ccccc34)C(=O)N[C@@H](CCC(N)=O)C(=O)N2)C(=O)N[C@@H](Cc2ccc3ccccc3c2)C(=O)N[C@H](CC(N)=O)C(=O)N[C@@H](CCCCNC(C)=O)C(=O)N[C@@H](CC(N)=O)C(=O)NCC(N)=O)cc1", "pIC50": "7.00 to 7.60"}

q: State its pIC50: CC(=O)N[C@@H](CS)C(=O)N[C@H](C(=O)N[C@@H](CC(=O)O)C(=O)N[C@@H](Cc1c[nH]c2ccccc12)C(=O)N[C@H](C(=O)N[C@@H](CS)C(=O)N[C@@H](Cc1ccc(O)cc1)C(=O)N[C@@H](Cc1c[nH]c2ccccc12)C(=O)N[C@@H](Cc1cnc[nH]1)C(=O)N[C@H](C(=O)N[C@@H](Cc1ccccc1)C(=O)NCC(N)=O)[C@@H](C)O)C(C)C)[C@@H](C)O
a: > 6.30
